- ASSAY PROTOCOL: LC/MS measurement of plasma nicotinamide and metabolites in NEAT trial participants
- TEST SETTINGS: human, in vivo, 1500 mg, Mean plasma methyl-nicotinamide, plasma nicotinamide elevated subgroup, treated, 12 months

| COMPOUND | concentration at 12 months |
| --- | --- |
| C[n+]1cccc(C(N)=O)c1 [methyl-nicotinamide, 1-methyl-nicotinamide] | 125 µM |

---

- ASSAY PROTOCOL: LC/MS measurement of plasma nicotinamide and metabolites in NEAT trial participants
- TEST SETTINGS: human, in vivo, 1500 mg, Plasma methyl-nicotinamide range in participants with elevated level, nicotinamide treated, 12 months

| MOLECULE | concentration at 12 months |
| --- | --- |
| C[n+]1cccc(C(N)=O)c1 [methyl-nicotinamide, 1-methyl-nicotinamide] | 6 to 294 µM |

Attribution: paper PMC11895359
